target.of.assay: RET-G810R enzyme (Homo sapiens (Human), UniProt P07949, G810R)
Sequence (P07949 29-1114 G810R): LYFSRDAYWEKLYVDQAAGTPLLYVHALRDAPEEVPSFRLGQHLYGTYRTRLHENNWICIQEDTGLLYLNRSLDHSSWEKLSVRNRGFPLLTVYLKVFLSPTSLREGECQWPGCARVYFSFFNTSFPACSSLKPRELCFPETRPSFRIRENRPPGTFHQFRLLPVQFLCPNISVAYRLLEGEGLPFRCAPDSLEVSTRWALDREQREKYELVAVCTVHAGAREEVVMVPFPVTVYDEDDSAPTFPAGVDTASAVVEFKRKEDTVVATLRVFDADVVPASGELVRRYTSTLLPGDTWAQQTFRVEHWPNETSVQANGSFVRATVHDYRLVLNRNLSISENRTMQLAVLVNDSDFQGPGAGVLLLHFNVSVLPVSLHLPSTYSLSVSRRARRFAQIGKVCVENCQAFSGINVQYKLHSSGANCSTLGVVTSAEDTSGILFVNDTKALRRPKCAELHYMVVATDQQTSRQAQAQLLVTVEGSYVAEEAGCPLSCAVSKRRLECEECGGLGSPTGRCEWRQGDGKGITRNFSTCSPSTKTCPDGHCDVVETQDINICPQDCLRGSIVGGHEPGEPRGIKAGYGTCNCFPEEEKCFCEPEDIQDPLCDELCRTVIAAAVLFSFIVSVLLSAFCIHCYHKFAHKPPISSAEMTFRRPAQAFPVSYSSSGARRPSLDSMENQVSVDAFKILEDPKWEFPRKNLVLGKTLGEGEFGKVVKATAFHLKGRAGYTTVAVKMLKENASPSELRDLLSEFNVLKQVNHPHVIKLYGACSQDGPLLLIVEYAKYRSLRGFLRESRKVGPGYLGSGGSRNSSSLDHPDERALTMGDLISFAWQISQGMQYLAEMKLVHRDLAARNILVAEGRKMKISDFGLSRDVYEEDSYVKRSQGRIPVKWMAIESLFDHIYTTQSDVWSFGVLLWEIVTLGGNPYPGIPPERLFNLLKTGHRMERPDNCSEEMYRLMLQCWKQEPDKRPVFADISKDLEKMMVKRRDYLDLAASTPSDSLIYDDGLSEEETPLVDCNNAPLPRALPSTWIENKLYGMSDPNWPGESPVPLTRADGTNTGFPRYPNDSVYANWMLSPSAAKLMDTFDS
assay.name: RET inhibition experiment, HTRF KinEASE-TK kit, RET-G810R
Type: biochemical
stated.conditions: compound concentration 300 nM
Form field: Inhibition rate on RET-G810R (%) (one value per entry).

- molecule: "Cc1cc(Nc2cc(C)[nH]n2)nc(-c2ccc(N3CC4CC(C3)N4Cc3ccc(-n4cc(C)c(C)n4)nc3)nc2)n1 [Compound 12]"
  unit.descriptor: "%"
  Inhibition rate on RET-G810R (%): 69.44
- molecule: "Cc1cc(Nc2cc(C)[nH]n2)nc(-c2ccc(N3CC4CC(C3)N4Cc3ccc(Cl)cn3)nc2)n1 [Compound 3]"
  unit.descriptor: "%"
  Inhibition rate on RET-G810R (%): 72.49
- molecule: "Cc1ccc(CN2C3CC2CN(c2ccc(-c4nc(C)cc(Nc5cc(C)[nH]n5)n4)cn2)C3)cc1 [Compound 2]"
  unit.descriptor: "%"
  Inhibition rate on RET-G810R (%): 70.41
- molecule: "Cc1cc(Nc2cc(C)[nH]n2)nc(-c2ccc(N3CC4CC(C3)N4Cc3ccc(-n4cccn4)cc3)nc2)n1 [Compound 6]"
  unit.descriptor: "%"
  Inhibition rate on RET-G810R (%): 77.16
- molecule: "Cc1cnn(-c2ccc(CN3C4CC3CN(c3ccc(-c5nc(C)cc(Nc6cc(C)[nH]n6)n5)cn3)C4)cn2)c1 [Compound 4]"
  unit.descriptor: "%"
  Inhibition rate on RET-G810R (%): 78.98
- molecule: "Cc1cc(Nc2cc(C)[nH]n2)nc(-c2ccc(N3CC4CC(C3)N4Cc3ccc(-n4cnc(F)c4)nc3)nc2)n1 [Compound 10]"
  unit.descriptor: "%"
  Inhibition rate on RET-G810R (%): 72.78
